All values here come from ChEMBL document CHEMBL1149601.

system: P388; experiment: Growth inhibition of mouse P388 cells by MTT assay; assay type: functional, cell-based
pIC50: −log10 of the molar value.
assay-endpoint: pIC50

CN(C)CCN1C(=O)c2cccc3c2c(cc2[nH]c(-c4ccc(Cl)cc4)nc23)C1=O = 6.02

1. Cc1ccc(-c2nc3c(cc4c5c(cccc53)C(=O)N(CCN(C)C)C4=O)[nH]2)cc1
2. CN(C)CCN1C(=O)c2cccc3c2c(cc2[nH]c(-c4ccsc4)nc23)C1=O
3. CN(C)CCN1C(=O)c2cccc3c2c(cc2[nH]c(-c4ccc(N(C)C)cc4)nc23)C1=O
4. CN(C)CCN1C(=O)c2cccc3c2c(cc2[nH]c(-c4ccccc4)nc23)C1=O
Q: Falling order of pIC50, please. Would you mind listing the labels in the order asked for?
A: 2, 4, 3, 1

a. CN(C)CCN1C(=O)c2cccc3c2c(cc2[nH]c(-c4cccs4)nc23)C1=O
b. CN(C)CCN1C(=O)c2cccc3c2c(cc2[nH]c(-c4ccc[nH]4)nc23)C1=O
Q: # return whichever of a and b has the smaller pIC50 Record your answer as the label of the chosen record.
A: a

A. CN(C)CCN1C(=O)c2cccc3c2c(cc2[nH]c(-c4cccnc4)nc23)C1=O
B. CN(C)CCN1C(=O)c2cccc3c2c(cc2[nH]c(-c4cccn4C)nc23)C1=O
Q: # return whichever of A and B has the smaller pIC50 Record your answer as the label of the chosen record.
A: A
(A: 5.64, B: 6.68)
